- measurement-target: androgen receptor (AR) (Homo sapiens, UniProt P10275, T878A)
- Construct: stably transfected eGFP-expressing LNCaP human prostate cancer cells (LN-ARR2PB-eGFP) containing an androgen responsive probasin-derived promoter; endogenous in cells; host or cells: LNCaP (LN-ARR2PB-eGFP)
- Sequence (P10275 1-920 T878A): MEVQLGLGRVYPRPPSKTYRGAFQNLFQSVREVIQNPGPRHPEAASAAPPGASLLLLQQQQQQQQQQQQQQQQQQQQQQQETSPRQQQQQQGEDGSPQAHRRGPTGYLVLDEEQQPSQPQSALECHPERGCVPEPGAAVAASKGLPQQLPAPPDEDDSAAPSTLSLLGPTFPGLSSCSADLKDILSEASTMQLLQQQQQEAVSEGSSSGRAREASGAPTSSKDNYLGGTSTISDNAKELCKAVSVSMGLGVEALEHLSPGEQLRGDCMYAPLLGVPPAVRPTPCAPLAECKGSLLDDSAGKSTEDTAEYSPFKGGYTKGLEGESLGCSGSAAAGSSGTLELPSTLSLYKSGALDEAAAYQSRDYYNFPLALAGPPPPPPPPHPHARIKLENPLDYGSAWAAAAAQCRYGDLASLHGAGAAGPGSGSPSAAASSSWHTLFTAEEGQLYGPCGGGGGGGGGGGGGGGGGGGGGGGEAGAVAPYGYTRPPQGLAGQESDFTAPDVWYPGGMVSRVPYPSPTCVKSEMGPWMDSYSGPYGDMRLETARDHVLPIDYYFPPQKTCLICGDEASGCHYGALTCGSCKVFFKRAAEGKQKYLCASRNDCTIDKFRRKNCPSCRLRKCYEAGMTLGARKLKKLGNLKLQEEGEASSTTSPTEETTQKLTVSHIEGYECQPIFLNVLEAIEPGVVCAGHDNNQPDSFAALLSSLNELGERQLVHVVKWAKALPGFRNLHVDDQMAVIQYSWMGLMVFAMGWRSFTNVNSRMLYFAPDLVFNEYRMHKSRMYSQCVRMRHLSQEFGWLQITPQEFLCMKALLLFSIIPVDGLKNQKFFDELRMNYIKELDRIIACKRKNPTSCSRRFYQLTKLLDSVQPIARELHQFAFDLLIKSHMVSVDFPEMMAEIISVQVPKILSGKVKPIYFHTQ
- procedure-summary: eGFP cellular AR transcription assay
- Type: cell-based
- condition-info: LN-ARR2PBeGFP LNCaP cells, 0.1 nM R1881, 3 days incubation; read-out: eGFP IC50
- Procedure: After 5 days, the cells were plated into a 96-well plate (35,000 cells/well) with 0.1 nM of the synthetic androgen R1881 and increasing concentrations (0-100 μM) of compound. After 5 days, the cells were plated into a 96-well plate (35,000 cells/well) with 0.1 nM R1881 and increasing concentrations (0-100 μM) of compound. In this assay, the expression of eGFP is under the control of an androgen responsive probasin-derived promoter and can quantify AR transcriptional activity.
pIC50: −log10 of the molar value.
recorded-metric: pIC50

Input: Can you share its pIC50? I mean this molecule: c1ccc2c(c1)C[C@H](c1c[nH]c3ccccc13)N2 [Compound 13163-B]
Output: 6.32

(A) Clc1ccc(N/N=C2\CCc3ccccc32)cc1Cl [Compound 13215]
(B) Cc1cc(F)cc2c(-c3ccc4ccc(F)cc4n3)n[nH]c12 [Compound 13704]
(C) Fc1cc2c(-c3ccc4cccc(F)c4n3)c[nH]c2c(F)c1F [Compound 13774]
Input: Given 3 molecules, produce a descending ranking by pIC50. // respond by listing labels in the order requested
Output: B, C, A
(B: 6.46, C: 6.15, A: 5.70)
